# assayed system: F protein of respiratory syncytial virus (RSV-Long strain), on infectious virus (respiratory syncytial virus (RSV-Long …, UniProt P12568 26-574))
# assay summary: cell-based or functional assay
Give Mean IC50 (Control) µg/ml, RSV microneutralization for every item shown.

# query: Mean IC50 (Control) µg/ml, RSV microneutralization of entry Clone 14 (Fab) (Fab, V domains shown) VH: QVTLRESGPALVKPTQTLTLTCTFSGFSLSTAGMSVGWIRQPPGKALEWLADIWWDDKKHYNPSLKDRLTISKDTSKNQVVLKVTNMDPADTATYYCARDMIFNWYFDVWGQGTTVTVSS VL: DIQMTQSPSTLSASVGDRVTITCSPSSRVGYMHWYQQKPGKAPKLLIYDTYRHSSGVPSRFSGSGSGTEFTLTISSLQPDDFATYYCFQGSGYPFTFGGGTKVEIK
0.102 µg/mL

Value lookup for Mean IC50 (Control) µg/ml, RSV microneutralization; key = Clone 13 (Fab) (Fab, V domains shown) VH: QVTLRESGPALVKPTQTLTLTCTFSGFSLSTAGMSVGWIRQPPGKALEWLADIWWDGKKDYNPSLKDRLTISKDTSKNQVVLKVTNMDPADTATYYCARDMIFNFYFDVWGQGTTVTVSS VL: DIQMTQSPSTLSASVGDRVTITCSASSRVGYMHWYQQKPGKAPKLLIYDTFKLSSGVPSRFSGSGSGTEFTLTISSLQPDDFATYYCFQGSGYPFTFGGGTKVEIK
0.031 µg/mL

Return reported Mean IC50 (Control) µg/ml, RSV microneutralization; argument: Clone 12 (Fab) (Fab, V domains shown) VH: QVTLRESGPALVKPTQTLTLTCTFSGFSLSTAGMSVGWIRQPPGKALEWLADIWWDGKKHYNPSLKDRLTISKDTSKNQVVLKVTNMDPADTATYYCARDMIFNFYFDVWGQGTTVTVSS VL: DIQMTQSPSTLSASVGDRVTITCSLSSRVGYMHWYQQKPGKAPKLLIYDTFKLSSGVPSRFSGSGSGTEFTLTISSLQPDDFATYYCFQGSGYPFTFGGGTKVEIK
0.125 µg/mL

Please look up its Mean IC50 (Control) µg/ml, RSV microneutralization: Clone 15 (Fab) (Fab, V domains shown) VH: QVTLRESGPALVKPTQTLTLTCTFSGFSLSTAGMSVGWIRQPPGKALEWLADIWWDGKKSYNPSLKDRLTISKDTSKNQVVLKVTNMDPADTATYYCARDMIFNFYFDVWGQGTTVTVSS VL: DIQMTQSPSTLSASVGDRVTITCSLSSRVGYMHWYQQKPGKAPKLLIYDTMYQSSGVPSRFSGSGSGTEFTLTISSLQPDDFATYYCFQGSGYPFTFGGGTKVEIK
0.0258 µg/mL

Give its Mean IC50 (Control) µg/ml, RSV microneutralization value. Item: Clone 11 (Fab) (Fab, V domains shown) VH: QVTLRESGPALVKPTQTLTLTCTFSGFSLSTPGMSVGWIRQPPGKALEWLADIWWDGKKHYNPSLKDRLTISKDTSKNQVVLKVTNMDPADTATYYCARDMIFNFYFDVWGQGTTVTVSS VL: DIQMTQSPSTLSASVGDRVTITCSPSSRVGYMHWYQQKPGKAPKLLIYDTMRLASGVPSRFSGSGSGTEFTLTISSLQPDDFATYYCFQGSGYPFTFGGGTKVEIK
> 1 µg/mL

Name the reported Mean IC50 (Control) µg/ml, RSV microneutralization value associated with the binder Clone 9 (Fab) (Fab, V domains shown) VH: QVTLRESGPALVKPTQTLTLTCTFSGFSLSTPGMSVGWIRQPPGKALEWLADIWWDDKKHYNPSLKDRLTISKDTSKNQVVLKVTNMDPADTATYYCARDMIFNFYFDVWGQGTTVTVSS VL: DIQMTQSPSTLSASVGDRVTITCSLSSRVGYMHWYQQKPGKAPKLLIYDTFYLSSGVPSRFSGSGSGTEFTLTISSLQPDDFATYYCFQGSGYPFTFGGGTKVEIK
0.0326 µg/mL

Source: patent US20020098189A1
